Taken from a melting point compilation (Tetko et al.; mined from patent text by program, amines drawn as free bases though some values may be those of a salt).

melting point for assorted molecules

Sample records with melting point:
melting point for `COC(=O)Nc1nc2ccc(OS(=O)(=O)c3cccc(OC(F)(F)C(F)F)c3)cc2[nH]1` is 186 °C

So for `Cc1c(-c2cccnc2)n(CCCC=CC(=O)O)c2ccccc12` , the logged melting point turned out to be 145 to 147 °C

For reference, reported melting point for `O=C(O)c1cc(Cl)c(Cl)c(Cl)n1` stands at 115 to 120 °C

The value of melting point measured for the molecule `CC(=O)NC[C@H]1CN(c2ccc(N3CCC(CC#N)CC3)cc2)C(=O)O1` turned out to be 150 to 152 °C

Next:
Sample `CC(C)(C)c1nn(-c2c(Cl)cc(C(F)(F)F)cc2Cl)c(N)c1Br` ; melting point observed: 228 to 231 °C

Kindly note the recorded melting point for `CNC(=O)c1ccc(C=CC(=O)NCC(=O)N(C)c2ccc(Cl)c(COc3cccc4c(OCC(=O)O)cc(C)nc34)c2Cl)cc1` , which is 233 to 257 °C

// `N#Cc1c(N)oc2c1c(Cc1ccccc1)c(O)c1ccccc12` : melting point value = 224 to 225 °C

// field: melting point; key: `CN(Cc1cccc(Cl)c1)c1ccc(C(=O)O)nc1` ; value = 138 to 140 °C

Form field melting point, entry `O=C([C@H]1CC[C@H](Nc2ncc3ncnc(Nc4ccc(F)c(Cl)c4)c3n2)CC1)N1CCCC1` : 206 to 209 °C

`O=C(Nc1ccc(C(=O)N2CCCCc3sc(Cl)cc32)cc1)c1ccc(Cl)cc1Cl` yielded melting point of 187 to 189 °C

---

ENDPOINT: melting point (°C)

Record CC(C)(C)NCC(O)c1ccc(F)cc1 (stereo unspecified) , field melting point: 117

According to the records, this compound `Cc1csc2c1c(-c1ccccc1Cl)nc(=O)n2C` displays melting point of 268

melting point measured on `CCc1nc2cc(C(F)(F)F)c(Cl)cc2n1-c1ccc(CCOC(=O)NS(=O)(=O)c2cn(C)c(C)n2)cc1` = 221

---

Reported melting point values for the following molecules.

Please review the following examples before continuing.
So, O=C(O)C(Cc1ccccc1)Nc1cc(-c2ccc(CCc3ccccc3)cc2)ncn1 (centres undefined) ? Its melting point was 216 to 218 °C

Per the records, this molecule ( `CCCCCCCNC(=O)Nc1ccc([N+](=O)[O-])cc1C(=O)NC1CCN(C(c2ccccc2)c2ccccc2)CC1` ) has melting point equal to 165 to 166 °C

So, `COc1cccn2c(=O)c(CCN3CCc4oc5ccccc5c4C3)c(C)nc12` ? Its melting point was 151 °C

Field: next molecule
Measured melting point of `Cc1cc(C=CC(=O)COc2ccc(CC(=O)O)cc2)cc(C)c1O` : 151 to 154 °C

---

// melting point lookup, one value per entry

Solved cases (4 shown):
Form field melting point, entry `Oc1cccc(-c2ccc3c(-c4cccnc4)coc3c2)c1` : 205 to 207 °C

Record `COc1c(C)cc(C(=O)c2ccc([N+](=O)[O-])cc2)cc1C` . Reported melting point: 131 to 132 °C

Memo: `FC(F)(F)CN1CCC(CNOCc2ccccc2)CC1` , reported melting point: 93.8 to 95.1 °C

Consider CC1CN(c2cc3c(c(NCc4ccccc4)c2F)c(=O)c(C(=O)O)cn3C2CC2)CCN1 (stereo not given) . Its measured melting point is 129 to 130 °C

// moving on: another record for melting point
Sure, the documented melting point for `CCc1ccc(S(=O)(=O)Nc2ccccc2/C=C/c2ccncc2)cc1` is 232 to 234 °C
